Every entry's value here was drawn from paper PMC6467359.

test system: SKOV-3 cells; test: MTT assay of cell viability and proliferation, SKOV-3; format: cell-based, human; details: Homo sapiens, SK-OV-3, 72 h, read-out: IC50 value at an incubation time of 72 hr
# Lookup of reported pIC50 keyed by entry
Please treat pIC50 as minus the base-10 logarithm of the molar concentration.

Compound: O=c1cc(-c2ccc(O)cc2)oc2cc(O)cc(O)c12
pIC50: 4.74

# COc1cccc2c1C(=O)c1c(O)c3c(c(O)c1C2=O)C[C@@](O)(C(=O)CO)C[C@@H]3O[C@H]1C[C@H](N)[C@H](O)[C@H](C)O1 [Doxorubicin, reference compound] with SKOV-3 cells: pIC50 is 6.93
